System: smooth muscle cells (canine aorta)
RUN DESCRIPTION: β-FGF-induced smooth muscle cell proliferation, 3H-thymidine incorporation
Assay type: cell-based
APPLIED CONDITIONS: Canis lupus familiaris, Table 3, read-out: ED50 FOR SMOOTH MUSCLE CELLS, β-FGF
pIC50: −log10 of the molar value.
This listing pairs compounds with measured pIC50.

// known answers, use as guide
[
  {
    "COMPOUND": "CC1=C(/C=C/C(C)=C\\C=C\\C(C)=C\\C(=O)O)C(C)(C)CCC1 [AGN 192013, reference compound]",
    "MEASURED ATTRIBUTE": "pIC50",
    "REPORTED RESULT": "< 4.00"
  },
  {
    "COMPOUND": "CC1=C(/C=C/C(C)=C/C=C/C(C)=C\\C(=O)O)C(C)(C)CCC1",
    "MEASURED ATTRIBUTE": "pIC50",
    "REPORTED RESULT": "< 4.00"
  }
]

Now for another entry.
Lab note: need pIC50 for CC1=C(/C=C/C(C)=C/C=C/C(C)=C/C(=O)O)C(C)(C)CCC1 on smooth muscle cells (canine aorta), anyone have it?
< 4.00

----------
This listing pairs compounds with measured pIC50.
Test system: smooth muscle cells (canine aorta)
RUN DESCRIPTION: Serum (1%)-induced smooth muscle cell proliferation, 3H-thymidine incorporation
Format: cell-based
APPLIED CONDITIONS: Canis lupus familiaris; serum induced; Table 2; read-out: ED50 FOR SMOOTH MUSCLE CELLS (concentration at which proliferation is inhibited by 50%)
pIC50 is defined as minus the log10 of a concentration measured in mol/L.

// known answers, use as guide
[
  {
    "COMPOUND": "CC(C)(C)c1ccc(C#Cc2ccc(C(=O)O)cn2)cc1OC1CCCCO1 (centres unmarked) [AGN 192327]",
    "MEASUREMENT TARGET": "smooth muscle cells (canine aorta)",
    "REPORTED RESULT": 5.40
  },
  {
    "COMPOUND": "CC1=C(/C=C/C#Cc2ccc(C(=O)O)cc2)C(C)(C)CCC1 [AGN 190121]",
    "MEASUREMENT TARGET": "smooth muscle cells (canine aorta)",
    "REPORTED RESULT": 4.34
  },
  {
    "COMPOUND": "C/C(=C\\c1ccc(C(=O)O)s1)c1cc2c(cc1C)C(C)(C)CCC2(C)C [AGN 191659]",
    "MEASUREMENT TARGET": "smooth muscle cells (canine aorta)",
    "REPORTED RESULT": 7.42
  }
]

Given the compound CC(C)(C)c1ccc(C#Cc2ccc(C(=O)O)cc2)cc1OC1CCCCO1 (centres unmarked) [AGN 192326] , what is its reported pIC50?
5.19

----------
System: RAR and RXR receptor
RUN DESCRIPTION: RAR vs RXR agonist activity (retinoid selectivity)
Type: biochemical
APPLIED CONDITIONS: Table 2; RAR selective agonist preferably has RAR vs RXR activity ratio of at least 5
MEASURED ATTRIBUTE: SELECTIVITY

[
  {
    "COMPOUND": "CC1(C)CCC(C)(C)c2cc(C#Cc3ccc(C(=O)O)cc3)ccc21",
    "MEASUREMENT TARGET": "RAR and RXR receptor",
    "SELECTIVITY": "RAR"
  },
  {
    "COMPOUND": "C/C(=C\\c1cc(C(=O)O)cs1)c1cc2c(cc1C)C(C)(C)CCC2(C)C [AGN 191701, reference compound]",
    "MEASUREMENT TARGET": "RAR and RXR receptor",
    "SELECTIVITY": "RXR"
  },
  {
    "COMPOUND": "C/C(=C\\c1ccc(C(=O)O)cc1)c1ccc2c(c1)C(C)(C)CCC2(C)C",
    "MEASUREMENT TARGET": "RAR and RXR receptor",
    "SELECTIVITY": "RAR"
  },
  {
    "COMPOUND": "CC(C)(C)c1ccc(C#Cc2ccc(C(=O)O)cc2)cc1OC1CCCCO1 (stereo not shown)",
    "MEASUREMENT TARGET": "RAR and RXR receptor",
    "SELECTIVITY": "RAR"
  },
  {
    "COMPOUND": "CC1=C(/C=C/C#Cc2ccc(C(=O)O)cc2)C(C)(C)CCC1",
    "MEASUREMENT TARGET": "RAR and RXR receptor",
    "SELECTIVITY": "RAR"
  }
]

Now for another entry.
Given the compound CC(C)(C)c1ccc(C#Cc2ccc(C(=O)O)cn2)cc1OC1CCCCO1 (stereo not shown) , what is its reported SELECTIVITY?
RAR
